Reference source: paper PMC5357904

# targetUnderTest: SbCRY1a (Sylvia borin)
# Construct: full length 1-620, 36-aa N-terminal 6xHis extension (pRSET-A), E. coli SoluBL21, apo-protein
# Sequence (Q6ZZY0 1-620): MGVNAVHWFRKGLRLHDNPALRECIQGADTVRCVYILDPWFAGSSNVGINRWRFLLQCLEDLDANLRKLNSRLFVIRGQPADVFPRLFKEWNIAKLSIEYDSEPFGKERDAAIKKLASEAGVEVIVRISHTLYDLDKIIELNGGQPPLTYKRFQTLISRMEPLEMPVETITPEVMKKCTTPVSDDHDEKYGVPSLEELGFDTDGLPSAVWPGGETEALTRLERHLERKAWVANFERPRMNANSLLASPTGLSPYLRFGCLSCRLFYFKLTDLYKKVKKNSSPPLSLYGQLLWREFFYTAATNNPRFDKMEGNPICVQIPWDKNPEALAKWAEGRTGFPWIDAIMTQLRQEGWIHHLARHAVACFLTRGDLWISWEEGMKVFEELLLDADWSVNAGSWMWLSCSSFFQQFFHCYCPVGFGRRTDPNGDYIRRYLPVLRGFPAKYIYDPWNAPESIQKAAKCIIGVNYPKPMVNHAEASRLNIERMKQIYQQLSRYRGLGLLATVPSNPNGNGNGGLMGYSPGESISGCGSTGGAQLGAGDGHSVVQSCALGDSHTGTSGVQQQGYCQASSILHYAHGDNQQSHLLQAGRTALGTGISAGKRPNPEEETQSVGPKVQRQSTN
# assayRemarks: UV-visible absorption titration of apo-protein into constant FAD, global fit
pKd: −log10 of the molar value.
recordedEndpoint: pKd

| entrySmiles | recordedEndpoint | valueReported |
| --- | --- | --- |
| Cc1cc2nc3c(=O)[nH]c(=O)nc-3n(C[C@H](O)[C@H](O)[C@H](O)COP(=O)(O)OP(=O)(O)OC[C@H]3O[C@@H](n4cnc5c(N)ncnc54)[C@H](O)[C@@H]3O)c2cc1C | pKd | 4.01 |
